# ASSAY_INFO: MTT cell viability assay
# Type: cell-based
# CONDITION_INFO: human foreskin fibroblasts
# Protocol: Six ozonizes have been tested for inhibition of HCMV replication and toxicity in human foreskin fibroblasts (Table 1, FIG. 1). The pp28 luciferase-recombinant Towne was used to measure HCMV replication, and an MTT assay—for cell viability. Cells were seeded in 96-well plates, treated with various concentrations of ozonides and incubated at 37° C. for 3 days. […]
Examples of compounds with documented CC50 at 3 days follow.

- COMPOUND: "CC(C)(N)CNC(=O)C[C@H]1CC[C@]2(CC1)OO[C@]1(O2)C2CC3CC(C2)CC1C3 [OZ277, arterolane, reference compound]"
  CC50 at 3 days (µM): 33.7
- COMPOUND: "O=C(O)C1CCN(CCOc2ccc([C@H]3CC[C@]4(CC3)OO[C@]3(O4)C4CC5CC(C4)CC3C5)cc2)CC1"
  CC50 at 3 days (µM): 45.5
- COMPOUND: "OC1CCN(CCOc2ccc([C@H]3CC[C@]4(CC3)OO[C@]3(O4)C4CC5CC(C4)CC3C5)cc2)CC1 [OZ513b]"
  CC50 at 3 days (µM): 49.4
- COMPOUND: "O=C(O)COc1ccc([C@H]2CC[C@]3(CC2)OO[C@]2(O3)C3CC4CC(C3)CC2C4)cc1"
  CC50 at 3 days (µM): 128

* * *

# Test system: pp28 luciferase-recombinant Towne HCMV
# ASSAY_INFO: pp28-luciferase Towne HCMV replication assay in HFFs
# Format: cell-based, human cytomegalovirus
# CONDITION_INFO: Human betaherpesvirus 5
Decide using EC50 alone. Strictly below 10 µM: true. Equal to or above 10 µM: false.

- COMPOUND: "c1cc([C@H]2CC[C@]3(CC2)OO[C@]2(O3)C3CC4CC(C3)CC2C4)ccc1OCCN1CCOCC1 [OZ439, artefenomel]"
  TARGET_ENTITY: "pp28 luciferase-recombinant Towne HCMV"
  GROUP_LABEL: "false"
- COMPOUND: "O=C(O)C1CCN(CCOc2ccc([C@H]3CC[C@]4(CC3)OO[C@]3(O4)C4CC5CC(C4)CC3C5)cc2)CC1 [OZ721]"
  TARGET_ENTITY: "pp28 luciferase-recombinant Towne HCMV"
  GROUP_LABEL: "true"
- COMPOUND: "OC1CCN(CCOc2ccc([C@H]3CC[C@]4(CC3)OO[C@]3(O4)C4CC5CC(C4)CC3C5)cc2)CC1 [OZ513b]"
  TARGET_ENTITY: "pp28 luciferase-recombinant Towne HCMV"
  GROUP_LABEL: "false"
- COMPOUND: "CC(C)(N)CNC(=O)C[C@H]1CC[C@]2(CC1)OO[C@]1(O2)C2CC3CC(C2)CC1C3 [OZ277, arterolane, reference compound]"
  TARGET_ENTITY: "pp28 luciferase-recombinant Towne HCMV"
  GROUP_LABEL: "false"
